- System: Klebsiella aerogenes DSM 30053
- Method Notes: fold change of Histamine concentration vs plate DMSO controls (fold change (ratio)); higher = more amine produced, active = hit call of the paper (significant change in both replicates, either direction);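 for the amine columns active = adjusted P below 0.05 in both replicates with a change the same way and a mean fold change under 0.8 or over 1.25; inactive = the rest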
- Measurement Context: incubation time: 27 h, anaerobic, 37 °C
Counter-ions that a name gives are not always drawn.
# output must be one of active, inactive

Please review the entries below; each comes with its answer.
[[record]]
molecule = "CN[C@@H]1[C@@H](O)[C@@H](O[C@@H]2[C@@H](O)[C@H](O[C@H]3OC(CN)=CC[C@H]3N)[C@@H](N)C[C@H]2N)OC[C@]1(C)O [Sisomicin sulfate] (20 µM)"
label_class = "inactive"

[[record]]
molecule = "Nc1ccc(S(=O)(=O)NC(=O)c2ccccc2)cc1 [Sulfabenzamide] (20 µM)"
label_class = "inactive"

[[record]]
molecule = "CC[N+](CC)(CC)CCOc1cccc(OCC[N+](CC)(CC)CC)c1OCC[N+](CC)(CC)CC [Gallamine triethiodide] (20 µM)"
label_class = "inactive"

[[record]]
molecule = "CC(=O)OC[C@H]1O[C@@H]([S-])[C@H](OC(C)=O)[C@@H](OC(C)=O)[C@@H]1OC(C)=O.CCP(CC)CC.[Au+] [Auranofin] (20 µM)"
label_class = "active"

[[record]]
molecule = "CC(CCc1ccc(O)cc1)NCCc1ccc(O)c(O)c1 (stereo not drawn) [Dobutamine hydrochloride] (20 µM)"
label_class = "inactive"


I'd appreciate the recorded outcome for CC(=O)O[C@H]1C[C@@H]2CC[C@@H]3[C@H](CC[C@@]4(C)[C@H]3C[C@H]([N+]3(C)CCCCC3)[C@@H]4OC(C)=O)[C@@]2(C)C[C@@H]1N1CCCCC1 [Vecuronium bromide] (20 µM) from this test. inactive

Now the same for CC1=C(C(=O)O)N2C(=O)[C@@H](NC(=O)[C@H](N)C3=CCC=CC3)[C@H]2SC1 [Cephradine monohydrate] (20 µM) inactive

Now the same for O=C1CCc2ccc(OCCCCN3CCN(c4cccc(Cl)c4Cl)CC3)cc2N1 [Aripiprazole] (20 µM) inactive

Now the same for CC[C@@H]1C(=O)OC[C@@H]1Cc1cncn1C [Pilocarpine nitrate] (20 µM) inactive

Now the same for C#C[C@]1(O)CC[C@H]2[C@@H]3CCC4=CC(=O)CC[C@@H]4[C@H]3CC[C@@]21C [Norethindrone] (20 µM) inactive

Now the same for Cc1ncc(C[n+]2csc(CCO)c2C)c(N)n1 [Thiamine hydrochloride] (20 µM) inactive

Now the same for OC[C@H]1O[C@@](CO)(OC[C@@]2(OC[C@@]3(O[C@H]4O[C@H](CO)[C@@H](O)[C@H](O)[C@H]4O)O[C@H](CO)[C@@H](O)[C@@H]3O)O[C@H](CO)[C@@H](O)[C@@H]2O)[C@@H](O)[C@@H]1O [Nystose] (50 µM) inactive

Now the same for CCCOc1cc(N)ccc1C(=O)OCCN(CC)CC [Propoxycaine hydrochloride] (20 µM) inactive

The values you see were collected from the supplement of paper PMC12494721.
